Test protocol: in vitro
Conditions: human, hela cells, % viability
Below, each of the compounds is paired with its reported viability at 28.5 h, 10 µM value.
Endpoint name: viability at 28.5 h, 10 µM (%)

# Compound, Value reported
data = [
    ("CC(C)Cn1c(=O)[nH]c2ncc(-c3ccc(C(=O)NC4CCCC4)cc3)nc21 [CBK064551]", 108),
    ("Cn1c2c(c(=O)n(C)c1=O)[C@H]1[C@H](O)[C@H](O)C[C@H]1C1(CCC1)N2 [CBK303250]", 93.6),
    ("COc1ccc(C(=O)N2CCN3C(=O)CCC32C)s1 (stereo not shown) [CBK282058]", 98.4),
    ("CCc1noc(C)c1C(=O)NCCN(C)C [CBK268118]", 97.5),
    ("CNC(=O)C1(Cc2ccc(-c3ccccc3)cc2)CCN(C(=O)C2CCCCC2)CC1 [CBK285762]", 113),
    ("CCCCCC1/C(=N\\O)CCC1CC(=O)OC (stereo not shown) [CBK019978]", 93.9),
    ("Cc1csc2c(C3CCN(C(=O)c4cc[nH]n4)CC3)nc(C)n12 [CBK285245]", 91.9),
    ("Cc1onc(-c2c(Cl)cccc2Cl)c1C(=O)N(C)C [CBK160437]", 97),
    ("COc1ccc2[nH]c3c(c2c1)CCNC31CCN(CCCN2C(=O)C3CCCCC3C2=O)C1 (stereo not shown) [CBK059518]", 88.9),
    ("CC(=O)Nc1c(O)nc(SCC(=O)Nc2ccccc2C(N)=O)[nH]c1=O [CBK268031]", 97.8),
    ("CC(C)(C)OC(=O)N1CCC(COc2ncc(-c3ccc(C(=O)N4CCC[C@@H]4CO)nc3)cn2)CC1 [CBK170022]", 90.9),
    ("CSc1nsc(SCC(=O)Nc2ccccc2C#N)n1 [CBK269826]", 95.1),
    ("CC(=O)c1cc(CCCO)n(Cc2ccco2)c1C [CBK022013]", 115),
    ("CN(C)C(CNC(=O)Nc1cccc(C(=O)NC2CC2)c1)c1cccs1 (stereo not shown) [CBK305565]", 115),
    ("O=C(NC1CC2CCC(C1)N2Cc1ccccc1)c1cccc(Cl)c1 (stereo not shown) [CBK116291]", 95.4),
    ("C[C@H](Nc1cncc(-c2cccc(CO)c2)n1)c1ccccc1 [CBK065512]", 102),
    ("Sc1nnc(-c2ccncc2)n1C1CCCCC1 [CBK288421]", 105),
    ("CN1CCN(c2ccccc2NC(=O)c2cccc3c(Br)cccc23)CC1 [CBK267894]", 92.9),
    ("O=C(NCc1ccccc1)c1ccc(CN2CCC(Cc3ccccc3)CC2)cc1 [CBK263432]", 87.5),
    ("CN(C(=O)c1cccs1)c1ccc(Oc2ncc(C(F)(F)F)cc2Cl)cc1 [CBK161654]", 89.6),
    ("Cc1cc(CNC(=O)CCc2c(C)nc3nc(N)nn3c2C)ccc1F [CBK306212]", 91.9),
    ("O=C(O)C1CCN(C(=O)NCc2ccc(F)cc2)CC1 [CBK156070]", 117),
    ("O=C(O)CCCN1C(=O)/C(=C\\c2ccccn2)SC1=S [CBK264552]", 92.4),
    ("O=C(Nc1ccccc1O)c1ccc2c(c1)C(=O)N(c1ccc(Sc3ccc([N+](=O)[O-])cc3)cc1)C2=O [CBK262092]", 86.8),
    ("O=c1[nH]c2ncc(-c3cccc(-c4ccccc4)c3)nc2n1CCCN1CCOCC1 [CBK064311]", 92.1),
    ("c1csc(-c2nccnc2OCC2COc3ccccc3O2)c1 (stereo not shown) [CBK107063]", 101),
    ("CC(=O)Nc1ccc(-c2cccc(COC3CCN(C(=O)c4ccc(OC(C)C)cc4)CC3)c2)cc1 [CBK149485]", 100),
    ("O=P(O)(CN1CCCCCC1)CN1CCCCCC1 [CBK262311]", 92.1),
    ("c1ccc(CCN2CCC(Oc3cncc(OCCN4CCOCC4)n3)C2)cc1 (stereo not shown) [CBK084497]", 87.6),
    ("CC(C)(C)c1ccc(N(C2CCNCC2)S(=O)(=O)c2ccc(Cl)cc2Cl)cc1 [CBK165067T]", 51),
    ("COc1ccc(S(=O)(=O)N(C)CC(=O)Nc2ccc(S(N)(=O)=O)cc2)cc1 [CBK265922]", 102),
    ("O=C(Cn1cccc(C(=O)Nc2cc(F)ccc2N2CCCC2)c1=O)NC1CCCCC1 [CBK286008]", 88.9),
    ("COC(=O)Cn1c(-c2ccc(OC)cc2)cc2cccnc21 [CBK282268]", 82.7),
    ("N#Cc1ccc(CNC(=O)N2CCCC(CO)C2)cc1 (stereo not shown) [CBK156043]", 94.3),
    ("Cc1ccc(C)c(NC(=O)C(Cc2ccccc2)N2C(=O)c3cc(Cl)c(Cl)cc3C2=O)c1 (stereo not shown) [CBK264232]", 109),
    ("Cc1ccc(CN2CC[C@H]3[C@@H](C2)[C@H](c2ccsc2)CN3C(=O)c2ccc(F)cc2)cc1 [CBK285637]", 98.1),
    ("O=C(NCCCn1ccnc1)N1CCN(Cc2ccc(Cl)cc2)CC1 [CBK305894]", 101),
]
